# Measurement Target: T1, human CDH17 on AGS gastric cancer cells and AsPC-1 pancreatic cancer cells (human, UniProt Q12864 23-832)
# T1 construct: Native CDH17 on the surface of cancer cell lines; also called CDH17 expressing AGS cells; CDH17 expressing AsPC-1 pancreatic cancer cells
# T1 sequence: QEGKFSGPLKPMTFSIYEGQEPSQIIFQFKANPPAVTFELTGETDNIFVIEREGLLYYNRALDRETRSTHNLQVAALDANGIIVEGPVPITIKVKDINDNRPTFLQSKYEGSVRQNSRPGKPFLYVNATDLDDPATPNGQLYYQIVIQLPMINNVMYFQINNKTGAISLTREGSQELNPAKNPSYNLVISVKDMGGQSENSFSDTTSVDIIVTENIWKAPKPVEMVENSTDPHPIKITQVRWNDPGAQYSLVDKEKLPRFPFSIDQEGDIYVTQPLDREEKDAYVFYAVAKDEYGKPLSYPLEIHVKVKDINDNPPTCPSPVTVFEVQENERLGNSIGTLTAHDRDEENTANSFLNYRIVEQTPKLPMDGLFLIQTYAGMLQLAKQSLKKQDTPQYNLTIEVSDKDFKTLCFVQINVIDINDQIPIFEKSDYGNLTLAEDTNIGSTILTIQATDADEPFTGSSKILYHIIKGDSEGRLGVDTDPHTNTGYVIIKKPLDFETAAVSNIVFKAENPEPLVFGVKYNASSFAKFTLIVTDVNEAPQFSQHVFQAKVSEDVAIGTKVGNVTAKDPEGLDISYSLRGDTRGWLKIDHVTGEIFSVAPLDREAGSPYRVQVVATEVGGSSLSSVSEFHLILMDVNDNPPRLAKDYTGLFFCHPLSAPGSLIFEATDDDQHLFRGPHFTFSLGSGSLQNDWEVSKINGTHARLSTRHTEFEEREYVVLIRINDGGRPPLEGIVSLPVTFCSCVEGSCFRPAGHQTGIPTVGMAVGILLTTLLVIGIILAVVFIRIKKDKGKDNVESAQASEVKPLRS
# Procedure Text: flow cytometry on AGS and AsPC-1 cells
Measure: binding result

>>> test_value("VHO v363 (VHH, Variable-heavy-only (VHO) single domain; also called TS00363) VHH: EVQLLESGGGLVQPGGSLRLSCAASGFTFSTYWMSWVRQAPGKGLEWVSNISQDGGSTYYADSVKGRFTISRDNSKNTLYLQMNSLRAEDTAVYYCAKTTDWLQDKVDEAFDYWGQGTLVTVSS")
"binds"
>>> test_value("VHO v376 (VHH, Variable-heavy-only (VHO) single domain; also called TS00376) VHH: EVQLLESGGGLVQPGGSLRLSCAASGFTFSDYWMSWVRQAPGKGLEWVSGINSSGGSTYYADSVKGRFTISRDNSKNTLYLQMNSLRAEDTAVYYCAKWQFVTQPGHKAFDYWGQGTLVTVSS")
"binds"
>>> test_value("VHO v372 (VHH, Variable-heavy-only (VHO) single domain; also called TS00372) VHH: EVQLLESGGGLVQPGGSLRLSCAASGFTFSSYWMSWVRQAPGKGLEWVSGINYSGSSTYYADSVKGRFTISRDNSKNTLYLQMNSLRAEDTAVYYCAKWSWLGSDKADFDYWGQGTLVTVSS")
"binds"
>>> test_value("VHO v346 (VHH, Variable-heavy-only (VHO) single domain; also called TS00346) VHH: EVQLLESGGGLVQPGGSLRLSCAASGFTFSDYWMSWVRQAPGKGLEWVSAIKQDGGSTYYADSVKGRFTISRDNSKNTLYLQMNSLRAEDTAVYYCAKETWEAHWDFDYWGQGTLVTVSS")
"binds"

Attribution: patent US20250270314A1
